Would you kindly list pIC50 for each of these compounds?
# EXPERIMENTAL_TARGET: cyclophilin A (Homo sapiens, UniProt P62937)
# Sequence (P62937 whole entry, species assumed): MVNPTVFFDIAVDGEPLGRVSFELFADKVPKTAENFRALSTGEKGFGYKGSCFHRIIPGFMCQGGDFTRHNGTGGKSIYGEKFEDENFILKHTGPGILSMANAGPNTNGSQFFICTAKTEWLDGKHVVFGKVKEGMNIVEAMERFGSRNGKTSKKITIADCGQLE
# EXPERIMENT: Cyclophilin A TR-FRET competitive binding assay
# TEST_CONTEXT: IC50 ranges; competition with CsA-Cy5 for His-tagged CypA, two-hour incubation; read-out: TR-FRET
pIC50: −log10 of the molar value.

Note to self: pIC50 of CC(C)[C@@H]1NC(=O)C(C)(C)/C=C/c2ccc3ccc(nc3c2)[C@@H](C)OC(=O)[C@@H]2CCCN(N2)C(=O)[C@H](COC(F)F)NC1=O with cyclophilin A (Homo sapiens, UniProt P62937) was > 7.00

Note to self: pIC50 of CC(C)[C@@H]1NC(=O)C(C)(C(C)O)/C=C/c2ccc3ccc(nc3c2)[C@@H](C)OC(=O)[C@@H]2CCCN(N2)C(=O)[C@H](C)NC1=O (stereo partly shown) [Compound 90] with cyclophilin A (Homo sapiens, UniProt P62937) was > 7.00

Note to self: pIC50 of CC(C)[C@@H]1NC(=O)C/C=C/c2ccc3ncc(cc3c2)[C@@H](C)OC(=O)[C@@H]2CCCN(N2)C(=O)[C@H](C)NC1=O with cyclophilin A (Homo sapiens, UniProt P62937) was > 7.00

Note to self: pIC50 of CC(C)[C@@H]1NC(=O)C(C)(C)/C=C/c2ccc3ccc(nc3c2)[C@@H](C)OC(=O)[C@@H]2CCCN(N2)C(=O)[C@H](CC(=O)N2CCCCC2)NC1=O with cyclophilin A (Homo sapiens, UniProt P62937) was > 7.00

Note to self: pIC50 of CC(C)[C@@H]1NC(=O)CCc2ccc(nc2)-c2cccc(c2)[C@@H](C)OC(=O)[C@@H]2CCCN(N2)C(=O)[C@H](C)NC1=O with cyclophilin A (Homo sapiens, UniProt P62937) was > 7.00

Note to self: pIC50 of CO[C@@H](C)[C@H]1/C=C/c2ccc3ccc(nc3c2)[C@@H](C)OC(=O)[C@@H]2CCCN(N2)C(=O)[C@@H](C)NC(=O)[C@H](C(C)C)NC1=O with cyclophilin A (Homo sapiens, UniProt P62937) was > 7.00

Note to self: pIC50 of CC(C)[C@@H]1NC(=O)C(C)(C)/C=C/c2ccc3ccc(nc3c2)[C@@H](C)OC(=O)[C@@H]2CCCN(N2)C(=O)[C@H](CC(=O)O)NC1=O with cyclophilin A (Homo sapiens, UniProt P62937) was > 7.00

Note to self: pIC50 of CC(C)[C@@H]1NC(=O)C(C)(C)/C=C/c2ccc3c(C#N)cc(nc3c2)[C@@H](C)OC(=O)[C@@H]2CCCN(N2)C(=O)[C@H](C)NC1=O with cyclophilin A (Homo sapiens, UniProt P62937) was 6.00 to 7.00

Note to self: pIC50 of COCCC1(C)/C=C/c2ccc3ccc(nc3c2)[C@@H](C)OC(=O)[C@@H]2CCCN(N2)C(=O)[C@H](C)NC(=O)[C@H](C(C)C)NC1=O (single isomer, unassigned) [Compound 103] with cyclophilin A (Homo sapiens, UniProt P62937) was > 7.00

Note to self: pIC50 of CC(C)[C@@H]1NC(=O)C(C)(C)COc2cc3cc(ccc3cn2)[C@@H](C)OC(=O)[C@@H]2CCCN(N2)C(=O)[C@H](C)NC1=O (single isomer, unassigned) with cyclophilin A (Homo sapiens, UniProt P62937) was > 7.00

Note to self: pIC50 of CC(C)[C@@H]1NC(=O)C2(/C=C/c3ccc4ccc(nc4c3)[C@@H](C)OC(=O)[C@@H]3CCCN(N3)C(=O)[C@H](C)NC1=O)CCN(CC(F)(F)F)CC2 with cyclophilin A (Homo sapiens, UniProt P62937) was > 7.00

Note to self: pIC50 of CC(C)[C@@H]1NC(=O)C/C=C/c2ccc3nnc(cc3c2)[C@@H](C)OC(=O)[C@@H]2CCCN(N2)C(=O)[C@H](C)NC1=O with cyclophilin A (Homo sapiens, UniProt P62937) was > 7.00

Note to self: pIC50 of CC(C)[C@@H]1NC(=O)C2(CCOCC2)CCc2cc3cc(ccc3cn2)[C@@H](C)OC(=O)[C@@H]2CCCN(N2)C(=O)[C@H](C)NC1=O with cyclophilin A (Homo sapiens, UniProt P62937) was 6.00 to 7.00

====

# EXPERIMENTAL_TARGET: cyclophilin A (Homo sapiens, UniProt P62937)
# EXPERIMENT: Cyclophilin A TR-FRET competitive binding assay
# TEST_CONTEXT: IC50 ranges; competition with CsA-Cy5 for His-tagged CypA, two-hour incubation; read-out: TR-FRET
Would you kindly list IC50 for each of these compounds?

Note to self: IC50 of CC(C)[C@@H]1NC(=O)[C@H](C)[C@H](O)CC/C=C/c2cccc(c2)[C@@H](C)NC(=O)[C@@H]2CCCN(N2)C(=O)[C@H](C)NC1=O with cyclophilin A (Homo sapiens, UniProt P62937) was < 0.1 µM

Note to self: IC50 of Cc1cc2ccc3cc2nc1[C@@H](C)NC(=O)[C@@H]1CCCN(N1)C(=O)[C@H](C)NC(=O)[C@H](C(C)C)NC(=O)C(C)(C)/C=C/3 with cyclophilin A (Homo sapiens, UniProt P62937) was < 0.1 µM

Note to self: IC50 of CC1/C=C/c2cc3cc(ccc3cn2)[C@@H](C)OC(=O)[C@@H]2CCCN(N2)C(=O)[C@H](C)NC(=O)[C@H](C(C)C)NC1=O (stereo partly drawn) with cyclophilin A (Homo sapiens, UniProt P62937) was < 0.1 µM

====

# EXPERIMENTAL_TARGET: cyclophilin A (Homo sapiens, UniProt P62937)
# EXPERIMENT: Cyclophilin A TR-FRET competitive binding assay
# TEST_CONTEXT: IC50 ranges; competition with CsA-Cy5 for His-tagged CypA, two-hour incubation; read-out: TR-FRET
Would you kindly list IC50 for each of these compounds?

Given item CC(C)[C@@H]1NC(=O)C(C)(C)/C=C/c2ccc3ccc(nc3c2)[C@@H](C)OC(=O)[C@@H]2CCCN(N2)C(=O)[C@H]([C@@H](C)O)NC1=O [Compound 91] , the value recorded as its IC50 is < 100 nM

Given item CC1NC(=O)C(C(C)C)NC(=O)C(C)(C)/C=C/c2ccc3c(C#N)cc(nc3c2)C(C)OC(=O)C2CCCN(N2)C1=O (centres unmarked) [Compound 141] , the value recorded as its IC50 is < 100 nM

Given item COC[C@@H]1NC(=O)[C@H](C(C)C)NC(=O)C(C)(C)/C=C/c2ccc3ccc(nc3c2)[C@@H](C)OC(=O)[C@@H]2CCCN(N2)C1=O (single isomer, unassigned) [Compound 117] , the value recorded as its IC50 is < 100 nM

Given item CC(C)[C@@H]1NC(=O)C(C)(C)/C=C/c2ccc3ccc(nc3c2)[C@@H](C)NC(=O)[C@@H]2CCCN(N2)C(=O)[C@H](Cc2ccccc2)NC1=O [Compound 120] , the value recorded as its IC50 is < 100 nM

Given item CC(C)[C@@H]1NC(=O)C2(/C=C/c3ccc4ccc(nc4c3)[C@@H](C)OC(=O)[C@@H]3CCCN(N3)C(=O)[C@H](C)NC1=O)CCN(Cc1ccccc1)CC2 [Compound 128] , the value recorded as its IC50 is < 100 nM

Given item CO[C@@H]1/C=C/c2cc3cc(ccc3cn2)[C@@H](C)OC(=O)[C@]2(C)CCCN(N2)C(=O)[C@H](C)NC(=O)[C@H](C(C)C)NC(=O)[C@@H]1C (single isomer, unassigned) [Compound 34] , the value recorded as its IC50 is < 100 nM

Given item CC(C)[C@@H]1NC(=O)[C@H](C)CCCc2cc3cc(ccc3cn2)[C@@H](C)OC(=O)[C@@H]2CCCN(N2)C(=O)[C@H](C)NC1=O [Compound 46] , the value recorded as its IC50 is < 100 nM

Given item CC(C)[C@@H]1NC(=O)COc2ccc(cc2)-c2cccc(n2)[C@@H](C)OC(=O)[C@@H]2CCCN(N2)C(=O)[C@H](C)NC1=O [Compound 41] , the value recorded as its IC50 is < 100 nM

Given item CC(C)[C@@H]1NC(=O)C(C)(C)/C=C/c2ccc3ccc(nc3c2)[C@@H](C)OC(=O)[C@]2(C)CCCN(N2)C(=O)[C@H](C)NC1=O [Compound 119] , the value recorded as its IC50 is < 100 nM

Given item CC(C)[C@@H]1NC(=O)C(C)(C)/C=C/c2ccc3cnc(nc3c2)[C@@H](C)OC(=O)[C@@H]2CCCN(N2)C(=O)[C@H](C)NC1=O [Compound 96] , the value recorded as its IC50 is < 100 nM

Given item CC(C)[C@@H]1NC(=O)C2(/C=C/c3ccc4ccc(nc4c3)[C@@H](C)OC(=O)[C@@H]3CCCN(N3)C(=O)[C@H](C)NC1=O)CCN(C(=O)OC(C)(C)C)CC2 [Compound 126] , the value recorded as its IC50 is < 100 nM
